Just for reference, patent US6933321B2 is where these values come from.

We begin with a simple list: items and their reported IC50.
Test system: Shionogi mouse mammary carcinoma cells
METHOD DESCRIPTION: Antiandrogenic activity on DHT-stimulated Shionogi mouse mammary carcinoma cell number
Type: cell-based
TEST SETTINGS: Mus musculus, read-out: Antiandrogenic activity IC50 (nM)
Report as a plain number; the unit nM is understood.

COc1ccc(-c2ccc(C#N)c(C(F)(F)F)c2)c(F)c1 [EM-4174] : 77

Now take the following compound into account.
According to the records, this compound N#Cc1ccc(-c2ccc(F)cc2F)cc1Cl [EM-4283] displays IC50 of 37

###

Reported inhibition in vivo at 0.03 mg by item:
Tested on: ear sebaceous glands in the male hamster
METHOD DESCRIPTION: Topical antiandrogenic activity, ear sebaceous glands model in the male hamster
Assay type: in vivo, Golden Syrian hamster
TEST SETTINGS: Mesocricetus auratus, topical, 336 h, dose 30 μg daily for 14 days, topical on left pinna; area of sebaceous glands of left ear; read-out: Ear Area Inhibition. Vs Control (%)
Description: • Column 2 represent the daily dose for 14 days of tested compound dissolved in ten μl solution of acetone:ethanol:propylene Glycol (1:1:2; v:v:v) applied onto a region between the two cartilage ridges of the ventral surface of left pinna. • Column 3 represents the percentage of inhibition of the area of the sebaceous glands of the left ear of the treated animals versus the area of the sebaceous glands of the left ear of the control animals. C—In vivo Assessment of Topical Antiandrogenic Activity […]
Respond numerically; units are % and should not be typed.

N#Cc1ccc(-c2cc(F)ccc2F)cc1C(F)(F)F [EM-4046] : 5
COc1ccc(-c2ccc(C#N)c(C(F)(F)F)c2)cc1Br [EM-4080] : 5
N#Cc1ccc(-c2ccc(N)cc2)cc1C(F)(F)F [EM-4186] : 0
COc1cc(F)ccc1-c1ccc(C#N)c(C(F)(F)F)c1 [EM-4068] : 15

# context switch: different compound, same inhibition in vivo at 0.03 mg
The reported inhibition in vivo at 0.03 mg of the compound N#Cc1ccc(-c2cccc(C(O)C(F)(F)F)c2)cc1C(F)(F)F (centres unmarked) [EM-4265] was 0
